Target: T1, PSMA Fab (biotinylated (site not stated))
T1 construct: Biotinylated PSMA Fab captured on neutravidin coated plates in the phage ELISA; also called anti-PSMA Fab; 006 PSMA Fab
Test: clonal phage ELISA on captured PSMA Fab pre-incubated with PSMA antigen as competitor, anti-M13-HRP detection;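 also: wells blocked with buffer plus PSMA antigen before phage addition, with blocking buffer alone as the no-competitor control, bound phage detected after washing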
Where no end group is shown, it is not given here.
QUANTITY: Phage binding ELISA signal, Anti-PSMA Fab with PSMA antigen
Hey, just send me the number, nothing else.

BINDER: DVRLCRPSWMCSGF [Phage-3378]
VALUE OBSERVED: 0.0682
//
BINDER: NGALCKPVWMCQGF [Phage-3383]
VALUE OBSERVED: 0.0702
//
BINDER: IEAVCKPSWMCAGF (cysteine pairing not given here; also: fused to pIII of bacteriophage) [Phage-3391]
VALUE OBSERVED: 0.0703
//
BINDER: FSVRCVPEWMCAGF (cysteine pairing not given here; also: fused to pIII of bacteriophage) [Phage-3387]
VALUE OBSERVED: 0.0701

With those in mind, consider the next binder.
Looking for the measured Phage binding ELISA signal, Anti-PSMA Fab with PSMA antigen of FTALCKPMWMCRGF [Phage-3386] , can you help?
0.0718
